// data source = ChEMBL document CHEMBL1150387

Form field: inhibition (one value per entry).
Biological target: Vascular endothelial growth factor receptor 2 (Homo sapiens) (UniProt P35968)
Sequence (P35968 whole entry): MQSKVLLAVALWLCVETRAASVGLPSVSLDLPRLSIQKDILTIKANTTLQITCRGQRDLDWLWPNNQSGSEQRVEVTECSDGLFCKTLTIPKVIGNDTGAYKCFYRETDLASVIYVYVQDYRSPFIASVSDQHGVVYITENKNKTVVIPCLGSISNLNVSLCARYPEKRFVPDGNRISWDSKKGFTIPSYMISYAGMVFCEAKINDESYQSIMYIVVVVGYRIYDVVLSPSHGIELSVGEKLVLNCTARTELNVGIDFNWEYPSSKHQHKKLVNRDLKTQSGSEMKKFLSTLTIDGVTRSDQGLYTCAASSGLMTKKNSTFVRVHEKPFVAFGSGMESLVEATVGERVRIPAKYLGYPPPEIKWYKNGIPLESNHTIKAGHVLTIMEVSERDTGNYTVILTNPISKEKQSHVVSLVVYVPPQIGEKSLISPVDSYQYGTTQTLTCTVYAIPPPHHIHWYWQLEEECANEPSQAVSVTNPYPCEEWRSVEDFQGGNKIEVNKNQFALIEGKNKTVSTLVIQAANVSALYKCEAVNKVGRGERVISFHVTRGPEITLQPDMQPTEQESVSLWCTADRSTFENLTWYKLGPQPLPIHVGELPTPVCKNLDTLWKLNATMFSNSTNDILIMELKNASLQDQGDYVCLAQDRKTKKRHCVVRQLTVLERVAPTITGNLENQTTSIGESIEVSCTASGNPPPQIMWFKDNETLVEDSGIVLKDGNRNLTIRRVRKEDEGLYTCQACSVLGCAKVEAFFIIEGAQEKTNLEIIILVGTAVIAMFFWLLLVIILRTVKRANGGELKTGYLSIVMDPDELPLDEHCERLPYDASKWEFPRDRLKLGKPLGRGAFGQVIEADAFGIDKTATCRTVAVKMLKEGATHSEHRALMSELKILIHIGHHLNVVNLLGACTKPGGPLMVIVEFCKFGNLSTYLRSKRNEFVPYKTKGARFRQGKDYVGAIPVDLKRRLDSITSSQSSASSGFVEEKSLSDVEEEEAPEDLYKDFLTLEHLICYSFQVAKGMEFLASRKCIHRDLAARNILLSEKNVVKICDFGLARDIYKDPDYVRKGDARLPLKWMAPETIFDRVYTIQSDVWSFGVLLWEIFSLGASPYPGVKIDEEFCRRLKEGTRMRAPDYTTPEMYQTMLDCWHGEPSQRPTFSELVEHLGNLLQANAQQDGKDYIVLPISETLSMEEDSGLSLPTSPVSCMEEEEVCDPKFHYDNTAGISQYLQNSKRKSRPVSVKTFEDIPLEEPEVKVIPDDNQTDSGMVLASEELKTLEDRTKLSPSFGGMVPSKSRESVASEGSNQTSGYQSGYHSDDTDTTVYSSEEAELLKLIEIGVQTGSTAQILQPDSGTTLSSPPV
Test: Inhibition of KDR at 10 uM by HTRF assay relative to control
Value Kind: inhibition (%)

In [3]: df
Out[3]:
                           substance_smiles  meas_value
0  Cc1cccc(Oc2ccnc(N3CCC[C@H]3C(=O)NCCCn3ccnc3)n2)c1          11
1  COc1cccc(Nc2cc(N3CCC[C@H]3C(=O)NCCc3ccc(O)cc3)nc(N)n2)c1           6
2  CN(C)CC(C)(C)CNC(=O)c1cccc(Nc2nccc(Nc3ccc4ncsc4c3)n2)c1          89
